Data credit: the RNAGym collection of RNA variant scans (doi:10.1073/pnas.2313332121)

B1: TPR t1 (parent)
chain: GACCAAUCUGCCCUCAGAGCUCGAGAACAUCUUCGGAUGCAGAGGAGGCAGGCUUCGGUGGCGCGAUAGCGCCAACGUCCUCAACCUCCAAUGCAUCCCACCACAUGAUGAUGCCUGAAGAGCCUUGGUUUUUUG

Variants of: B1
Assay: polymerase ribozyme fitness, log enrichment relative to wild type (log ratio); higher = more active; in vitro selection for triplet polymerase activity
Criterion: polymerase ribozyme fitness (log ratio) meeting or surpassing -2. Met: 1. Not met: -1.

IN: Reported polymerase ribozyme fitness (log ratio) at or above -2? GACCAAUCUGCCCUCAGAGCUCGAGAACAUCUUCGGAUGCAGAGGAGGCAGGCUUCGGUGGCGCGAUAGCGCCAACGUCCUCAACCUCCAAAGCAUCCCACCACAUGAUGAUGCCUGAAAAGCCUUGGUUUUUUG [U92A G120A]
OUT: -1

IN: Could you tell me if the measured polymerase ribozyme fitness (log ratio) of GACCAAUCUGCCCUCAGAGCUCGAGAACAUCUUCGGAUGCAGAGGAGGCAGGCUUCGGUGGCGCGAUAGUGCCAACGUCCUCAACCUCCAAUGCAUCCCACCACAUGAUGAUGCCUGAAGAACCUUGGUUUUUUG [C70U G122A] reaches -2 or more?
OUT: 1

Next:
IN: In plain terms: is recorded polymerase ribozyme fitness (log ratio) at least -2 for GACCAAUCUGCCCUCAGAGCUCGAGAACACCUUCGGAUGCAGAGGGGGCAGGCUUCGGUGGCGCGAUAGCGCCGACGUCCUCAACCUCCAAUGCAUCCCACCACAUGAUGAUACCUGAAGAGCCUUGGUUUUUUG [U30C A46G A74G G113A] ?
OUT: -1

IN: Check this variant for polymerase ribozyme fitness (log ratio) at or above -2: GACCAAUCUGUCCUCAGAGCUCGAGAACAUCUUCGGAUGCAGAGGAGGCAGGCUUCGGCGGCGCGAUAGCGCCAACGUCCUCAACCUCCAAUACAUCCCACCACAUGAUGAUGCCUGAAGAGCCUUGGUUUUUUG [C11U U59C G93A]
OUT: 1

IN: Confirm if polymerase ribozyme fitness (log ratio) reported for the variant GACCAAUCUGCCCUCAGAGCUCGAGAACAUCUUCGGAUGCAGAGGAGGCAGGCUUCGGUGGCGCGAUAGCGCAAACGUCCUCAACCUCCAAUGCAUCCCACAACAUGAUGAUGCCUGAAGAGCCUUGGUUUUUUG [C73A C102A] is -2 or above.
OUT: -1

IN: hey, is polymerase ribozyme fitness (log ratio) for this one >= -2? GACCGAUCUGCCCUCAGAGCUCGAGAACAUCUUCGGAUGCAGAGGAGGCAGGCUUCGGUGGCGCGAUAGCGCCAACGUCCUCAACCUCCAAUACAUCCCACCACAUGAUGAUGCCUGAAGAGCCUUGGUUUUUUG [A5G G93A]
OUT: 1
